- Tested on: HEK-293T
- ASSAY: Multiplex assay against HEK293T
- Assay type: toxicity, cell-based
- PARTICULARS: human, 12 h, 10 µM, compound concentration 10 uM, replicate 1
Hi, to clarify the labels: 1 covers Population Hoechst High Intensity Objects (%) from 20% upward, 0 covers anything below 20%.

Solved cases (5 shown):
>>> class_assignment("Cc1cc(C)cc(-c2cnc3cc(Cl)c(-c4cccc(O)c4)cc3c2OCCCN)c1")
0
>>> class_assignment("COc1cc(-n2cnc3cc(-c4ccc(Cl)cc4)sc3c2=O)ccc1OCCN1CCCC1")
1
>>> class_assignment("Cc1nc(Nc2n[nH]c3c2CN(C(=O)N[C@H](CN(C)C)c2ccccc2)C3(C)C)c2sccc2n1")
0
>>> class_assignment("CC(C)(O)CNc1ncc(-c2ccnc(Nc3ccnc(Cl)c3)n2)c(CC2CC2)n1")
1
>>> class_assignment("C=CC(=O)Nc1cc2c(Nc3ccc(F)c(Cl)c3)ncnc2cc1OCCCN1CCOCC1.Cl.Cl [CANERTINIB DIHYDROCHLORIDE]")
0

Population Hoechst High Intensity Objects (%) >= 20% for CN1CCCC(n2nc(Cc3ccc(Cl)cc3)c3ccccc3c2=O)CC1.Cl (configuration not stated) [AZELASTINE HYDROCHLORIDE] ? 0

Evaluate OC1(c2ccc(Cl)cc2)CCN(Cc2c[nH]c3ccccc23)CC1 : Population Hoechst High Intensity Objects (%) at minimum 20%? 0

Could you please find out whether CCN(CC)CCCCNc1ncc2cc(-c3cc(OC)cc(OC)c3)c(NC(=O)NC(C)(C)C)nc2n1 has Population Hoechst High Intensity Objects (%) that meets 20% or exceeds it? 1

Check this compound for Population Hoechst High Intensity Objects (%) at or above 20%: Cn1cc(-c2[nH]c3cc(NC(=O)[C@H](N)C4CCCCC4)cc4c3c2C=NNC4=O)cn1 0

Is reported Population Hoechst High Intensity Objects (%) greater than or equal to 20% here: CN(C)CC#Cc1ccc(OCCCc2sc(N3CCc4cccc(C(=O)Nc5nc6ccccc6s5)c4C3)nc2C(=O)O)c(F)c1 0

Record CN1CCN(CCOc2cc(OC3CCOCC3)c3c(Nc4c(Cl)ccc5c4OCO5)ncnc3c2)CC1 ; criterion: Population Hoechst High Intensity Objects (%) no lower than 20%. Met? 0

Is Population Hoechst High Intensity Objects (%) at least 20%? Consider CN1CCC[C@@H]1CCO[C@](C)(c1ccccc1)c1ccc(Cl)cc1.O=C(O)/C=C/C(=O)O [CLEMASTINE FUMARATE] 0

* * *

- Tested on: Fibroblast
- ASSAY: Multiplex assay against human fibroblast
- Type: toxicity, cell-based
- PARTICULARS: 12 h, 10 µM, compound concentration 10 uM, replicate 1
OBSERVATION TYPE: Population Normal (%)
Numbers only, in %.

Would you please look over these solved cases?
>>> data_value("CC[C@H](C)C(=O)O[C@H]1C[C@@H](C)C=C2C=C[C@H](C)[C@H](CC[C@@H]3C[C@@H](O)CC(=O)O3)[C@H]21")
86
>>> data_value("COc1cc(-n2cnc3cc(-c4ccc(Cl)cc4)sc3c2=O)ccc1OCCN1CCCC1")
85
>>> data_value("Cc1nc(-c2cn3c(n2)-c2ccc(-c4cnn(C(C)(C)C(N)=O)c4)cc2OCC3)n(C(C)C)n1")
88
>>> data_value("COc1cc2nccc(Oc3ccc(NC(=O)Nc4cc(C)on4)c(Cl)c3)c2cc1OC.O")
86
>>> data_value("CN(C)CC#Cc1ccc(OCCCc2sc(N3CCc4cccc(C(=O)Nc5nc6ccccc6s5)c4C3)nc2C(=O)O)c(F)c1")
88

I'm hoping you can list Population Normal (%) for every molecule here, please.
1. C[C@@H](NCCCc1cccc(C(F)(F)F)c1)c1cccc2ccccc12.Cl [CINACALCET HYDROCHLORIDE]
2. C[C@@]1(C(=O)Nc2ccc(F)nc2)CCCN1c1nc(Nc2cc(C3CC3)n[nH]2)c2cccn2n1
3. CN1CCCC(n2nc(Cc3ccc(Cl)cc3)c3ccccc3c2=O)CC1.Cl (stereo not drawn) [AZELASTINE HYDROCHLORIDE]

1. 88
2. 84
3. 81

* * *

- System: Fibroblast
- ASSAY: Multiplex assay against human fibroblast
- Assay type: toxicity, cell-based
- PARTICULARS: 12 h, 10 µM, compound concentration 10 uM, replicate 1
Please respond with reported Total Cell Count for every item in the list.
One number for each entry.

Kindly give each listed record's Total Cell Count.
1. COc1cccc([C@@H](C)NCCCc2ccccc2Cl)c1.Cl [TECALCET HYDROCHLORIDE]
2. CN(C)CC#Cc1ccc(OCCCc2sc(N3CCc4cccc(C(=O)Nc5nc6ccccc6s5)c4C3)nc2C(=O)O)c(F)c1 [A-1155463]
3. CC(C)NCC(O)COc1ccc(CCOCC2CC2)cc1.Cl (stereo not drawn) [BETAXOLOL HYDROCHLORIDE]
4. COc1cc(-n2cnc3cc(-c4ccc(Cl)cc4)sc3c2=O)ccc1OCCN1CCCC1
5. COc1ncc(-c2ccc3nccc(-c4ccnnc4)c3c2)cc1NS(=O)(=O)c1ccc(F)cc1F [OMIPALISIB]
6. CNc1nc(NCc2ccc(NS(C)(=O)=O)cc2Cl)cc(-c2ccccn2)n1
7. CN1CCCC(n2nc(Cc3ccc(Cl)cc3)c3ccccc3c2=O)CC1.Cl (stereo not drawn) [AZELASTINE HYDROCHLORIDE]
8. Cc1csc2c(N[C@@H](C)CN3CCN(S(=O)(=O)c4ccc(Cl)c(Cl)c4)CC3)ncnc12

1: 183; 2: 173; 3: 125; 4: 141; 5: 96; 6: 142; 7: 138; 8: 113

* * *

- Tested on: Fibroblast
- ASSAY: Multiplex assay against human fibroblast
- Type: toxicity, cell-based
- PARTICULARS: 48 h, 10 µM, compound concentration 10 uM, replicate 2
Population Hoechst High Intensity Objects (%) strictly under 40% means y; at 40% or over means n.

Observe how each entry below is paired with its result.
>>> class_assignment("CCn1c(=O)c(-c2ccc(Cl)cc2Cl)cc2cnc(Nc3ccc(N4CCNCC4)c(F)c3)nc21")
"n"
>>> class_assignment("Cl.N#Cc1ccc2[nH]cc(CCCCN3CCN(c4ccc5oc(C(N)=O)cc5c4)CC3)c2c1 [VILAZODONE HYDROCHLORIDE]")
"n"
>>> class_assignment("NC(=O)Nc1cc(-c2cccc(F)c2)sc1C(=O)N[C@H]1CCCNC1")
"y"
>>> class_assignment("OC1(c2ccc(Cl)cc2)CCN(Cc2c[nH]c3ccccc23)CC1")
"y"
>>> class_assignment("CN(C)C(=O)/C(C#N)=C/c1ccc(-c2nc3cnc4[nH]ccc4c3n2C2CCCCC2)o1")
"n"
>>> class_assignment("COc1cc2nccc(Oc3ccc(NC(=O)Nc4cc(C)on4)c(Cl)c3)c2cc1OC.O")
"y"
>>> class_assignment("c1cn2cc(-c3ccc4cn[nH]c4c3)nc(Nc3ccc(N4CCOCC4)cc3)c2n1")
"n"

API: the following record is the query input.
# strict comparison: is reported Population Hoechst High Intensity Objects (%) < 40%? input = CN1CCN(c2ccc(OC(F)(F)F)c(Nc3ncc4c(n3)-c3c(c(C(N)=O)nn3CCO)CC4)c2)CC1 y

* * *

Answer each item with its documented Total Cell Count.
- Tested on: HEK-293T
- ASSAY: Multiplex assay against HEK293T
- Type: toxicity, cell-based
- PARTICULARS: human, 12 h, 1 µM, compound concentration 1 uM, replicate 2
Give bare numbers.

Solved cases below.
>>> data_value("c1cn2cc(-c3ccc4cn[nH]c4c3)nc(Nc3ccc(N4CCOCC4)cc3)c2n1 [ENTOSPLETINIB]")
197
>>> data_value("CN(C)CC#Cc1ccc(OCCCc2sc(N3CCc4cccc(C(=O)Nc5nc6ccccc6s5)c4C3)nc2C(=O)O)c(F)c1 [A-1155463]")
177
>>> data_value("CN(C)C(=O)/C(C#N)=C/c1ccc(-c2nc3cnc4[nH]ccc4c3n2C2CCCCC2)o1")
175

Per the record, CN1CCN(c2ccc(OC(F)(F)F)c(Nc3ncc4c(n3)-c3c(c(C(N)=O)nn3CCO)CC4)c2)CC1 [ONVANSERTIB] has Total Cell Count of 113

* * *

- Test system: U2OS
- ASSAY: Multiplex assay against U2OS
- Type: toxicity, cell-based
- PARTICULARS: human, 12 h, 1 µM, compound concentration 1 uM, replicate 1
Could you please report measured Population Healthy Nuclei (%) for the items listed next?
Give bare numbers, in %.

Past entries and their recorded results:
>>> data_value("Cl.N#Cc1ccc2[nH]cc(CCCCN3CCN(c4ccc5oc(C(N)=O)cc5c4)CC3)c2c1 [VILAZODONE HYDROCHLORIDE]")
65
>>> data_value("Cc1nc(Nc2n[nH]c3c2CN(C(=O)N[C@H](CN(C)C)c2ccccc2)C3(C)C)c2sccc2n1 [PF-03758309]")
79
>>> data_value("CN1CCCC(n2nc(Cc3ccc(Cl)cc3)c3ccccc3c2=O)CC1.Cl (centres undefined) [AZELASTINE HYDROCHLORIDE]")
71

# evaluate next
Lab note: measured Population Healthy Nuclei (%) of C=CC(=O)Nc1cccc(C(=O)Nc2ccc(Nc3cc(-c4[nH]c(SC)nc4C)ccn3)cc2)c1 was 78

Reference for the values: ChEMBL document CHEMBL4689842
